Target: human cloned dopamine D4.2 receptors (Homo sapiens, UniProt P21917, DEL265-296)
Construct: expressed in transfected cells; host or cells: CHO cells
Sequence (P21917 with tags, fused parts or gaps DEL265-296): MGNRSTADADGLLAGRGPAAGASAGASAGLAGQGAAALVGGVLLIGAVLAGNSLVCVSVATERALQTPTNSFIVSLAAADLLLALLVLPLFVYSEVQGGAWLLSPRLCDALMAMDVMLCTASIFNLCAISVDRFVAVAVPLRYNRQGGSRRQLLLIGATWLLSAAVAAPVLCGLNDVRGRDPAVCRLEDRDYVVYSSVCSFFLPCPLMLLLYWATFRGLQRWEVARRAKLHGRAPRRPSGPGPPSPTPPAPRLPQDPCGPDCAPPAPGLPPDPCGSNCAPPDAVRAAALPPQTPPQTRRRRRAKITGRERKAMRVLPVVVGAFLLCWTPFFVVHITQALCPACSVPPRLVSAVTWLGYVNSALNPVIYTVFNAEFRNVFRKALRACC
Test: Inhibition of the binding of [3H]YM-09151-2 to human dopamine D4.2 receptors
Settings: at 50 nM; [3H]YM-09151-2 0.06 nM, membranes of CHO-cells
observable: D4-binding (% inhibition) (% at 50 nM)
I only need the number, in % at 50 nM, no unit after it.

Solved cases below.
compound: O=C(CCCN1CCN(c2ccc3[nH]ccc3c2)CC1)N1CCc2ccccc2C1 [Compound 5b]
unit abbreviation: % at 50 nM
D4-binding (% inhibition): 81
//
compound: O=C(CCN1CCN(c2ccc3[nH]ccc3c2)CC1)N1CCc2ccccc2C1 [Compound 5a]
unit abbreviation: % at 50 nM
D4-binding (% inhibition): 73

# context switch: different compound, same D4-binding (% inhibition)
Q) Which D4-binding (% inhibition) value belongs to O=C1c2ccccc2CCN1CCCCN1CCN(c2ccc3[nH]ccc3c2)CC1 [Compound 3c] ?
A) 56

All figures here come from patent US20030232822A1.
